assay: Rat PK: plasma xanomeline after subcutaneous (SC) dosing of xanomeline, prodrugs or pamoate salts at 5 mg/kg or 3.5 mg/kg (Example A-2); type: in vivo, male Sprague-Dawley (SD) rats; details: male, Sprague-Dawley, plasma, sc, parent xanomeline dosed SC, Mean, read-out: Xanomeline (SC) T1/2 (converted)
reported metric: half-life (h)
Numeric only. Scale: h

CCCCCCOc1nsnc1C1=CCCN(C)C1 has a reported half-life of 1.37

----------
Answer each item with its documented concentration at 0.75 h.
assay: Rat PK: plasma prodrug concentration after intravenous (IV) dosing of xanomeline prodrugs at 1 mg/kg (Example A-6); format: in vivo, male Sprague-Dawley (SD) rats; conditions: male, Sprague-Dawley, iv, 1 mg/kg, 0.750 h, IV 1 mg/kg of xanomeline, Mean, read-out: Prodrug Plasma Concentrations Following Intravenous Dosing
Answer format: numeric, ng/mL implied, no suffix.

For record CCCCCCOc1nsnc1C1=CCC[N+](C)(C(C)OC(=O)C(C)(C)C)C1 (centres unmarked) [Compound 19] the listed concentration at 0.75 h is 7.1

Consider CCCCCCOc1nsnc1C1=CCC[N+](C)(C(CC)OC(=O)C(C)(C)C)C1 (centres unmarked) [Compound 352] . Its measured concentration at 0.75 h is 6.01
